Values from PubChem BioAssay (NCI)

system: MALME-3M melanoma; experiment: NCI-60 one-dose screen, 48 h (100 = growth as untreated, 0 = no growth, -100 = all killed); settings: 10 µM unless noted
About 83,000 compounds went through this panel and 20% of them were active in at least one assay; those are over-represented in the sample as a whole.
growth values by entry
endpoint-label: growth (%)

molecule: CCNCc1ccncc1
endpoint-label: growth
display-unit: %
observed-result: 101

molecule: CCC1CCc2nc3sc(C(=O)Nc4cccc(C)c4)c(N)c3cc2C1 (stereo unspecified)
endpoint-label: growth
display-unit: %
observed-result: 47.4

molecule: CSc1nc(-c2cc3ccccc3o2)cc(-c2ccc(Cl)cc2)c1C#N
endpoint-label: growth
display-unit: %
observed-result: 89.3

molecule: COc1ccc(C2=CC(c3ccc(Oc4ccnc5cc(Cl)ccc45)c(OC)c3)c3c(nc(OC)[nH]c3=O)N2)cc1 (stereo unspecified)
endpoint-label: growth
display-unit: %
observed-result: 78.5

molecule: Cc1sc2nc(CSc3nnc(-c4ccco4)o3)[nH]c(=O)c2c1C
endpoint-label: growth
display-unit: %
observed-result: 128

molecule: COc1ccc2c(c1)NC(=O)CN2c1nc(C)nc2ccccc12
endpoint-label: growth
display-unit: %
observed-result: 67.6

molecule: Cc1c(C(=O)NCc2ccccc2)[n+](=O)c2cc(F)ccc2n1[O-]
endpoint-label: growth
display-unit: %
observed-result: 114

molecule: CC(=O)Oc1cccc(OC(C)=O)c1OC(C)=O
endpoint-label: growth
display-unit: %
observed-result: 97.6

molecule: COc1cc(C2C=C(C)N=C3SC=C(C)N32)cc(OC)c1OC (stereo unspecified)
endpoint-label: growth
display-unit: %
observed-result: -54

molecule: CCC(=O)Nc1ccccc1C#C/C=C\C#Cc1ccccc1SC
endpoint-label: growth
display-unit: %
observed-result: 76.8

molecule: COc1cc(CNC(=O)CSc2nc3ccccc3c(=O)n2Cc2cc(OC)c(OC)c(OC)c2)cc(OC)c1OC
endpoint-label: growth
display-unit: %
observed-result: 97.5

----------
test system: ACHN renal; assay: NCI-60 one-dose screen, 48 h; details: 10 µM unless noted
Compounds without any hit were thinned out: in the full panel of roughly 83,000, 20% have a hit. Activity calls are given as the source filed them. How the source made its calls: active means growth percent below 10; inactive means the rest.
Outcome codes: Yes (active), No (inactive)

compound: CCCCC[C@@H]1Cc2cc(O)c(C(=O)O)c3c2[C@H](C[C@@]2(CCCO2)O3)O1
class-name: No
//
compound: CCCCCCCCCCCCOB(OCCCCCCCCCCCC)OCCCCCCCCCCCC
class-name: No
//
compound: COc1ccc(/C=C2\C(=O)N(C(=O)c3csc(NC(C)=O)n3)N=C2C)cc1
class-name: No
//
compound: CCOC(=O)c1cc(/C(=N\O)c2cc(OC)c(OC)c(OC)c2)n2cc(C)cc(C)c12
class-name: No
//
compound: C=CCOc1ccc(/C(O)=C2\C(=O)C(=O)N(c3nccs3)C2c2ccccc2F)cc1 (stereo not given)
class-name: No
//
compound: COc1ccc(/C=C/C(=O)c2ccc(NC(=O)CN3CCN(c4cc5c(cc4F)c(=O)c(C(=O)O)cn5C4CC4)CC3)cc2)cc1
class-name: No
//
compound: Clc1ccc(-c2nc(-c3ccco3)cn3ccnc23)cc1
class-name: Yes
//
compound: NC(=S)NN=C1CCCCC1
class-name: No
//
compound: COc1ccc(-n2cnc3c(sc4ncc(Cl)cc43)c2=O)cc1
class-name: No
//
compound: COc1cc(/C=C\c2cc(OC)c(OC)c(OC)c2)cc(N/C=C\C(=O)c2c[nH]c3ccccc23)c1OC
class-name: Yes
//
compound: Cc1ccc2c(c1)ncn2-c1ncnc2c1CC(C)c1ccccc1N2C (stereo not given)
class-name: No
//
compound: COc1cccc(/C=C2\SC(N3CCN(c4ccccn4)CC3)=NC2=O)c1
class-name: No
//
compound: COc1ccc(C(=O)c2cc(OC)c(OC)c(OC)c2)cc1/C=C/C(=O)c1ccc(OC)c(OC)c1
class-name: No
//
compound: COc1cc(/C=C2\CCCC3=C2NC(C)=NC3c2cc(OC)c(OC)c(OC)c2)cc(OC)c1OC (stereo not given)
class-name: No
//
compound: CC(Br)C(OC(=O)c1ccccc1Cl)c1cc2c(cc1Br)OCO2 (stereo not given)
class-name: No
//
compound: COc1ccc(-c2nc(-c3ccccc3)c(-c3ccccc3)n2C2CC2)cc1OC1CCCCC1
class-name: No
//
compound: CC(C)C[C@H](NC(=O)[C@H](Cc1ccccc1)n1ccc(N2CCCCC2)cc1=O)B(O)O
class-name: No
//
compound: O=S(=O)(NCCCNc1nccc(-c2c(-c3ccccc3)nc3sccn23)n1)c1ccc(F)cc1
class-name: No
//
compound: CCCCCCCCCCCCNC(=S)N/N=C/c1ccc(Cl)c(Cl)c1
class-name: No
//
compound: CC(C)C[C@H](NC(=O)Cn1ccc(NCc2ccccc2)cc1=O)B(O)O
class-name: Yes

----------
Test system: LOX IMVI melanoma
Test: NCI-60 one-dose screen, 48 h (100 = growth as untreated, 0 = no growth, -100 = all killed)
Details: 10 µM unless noted
Experimental: Growth inhibition of the LOX IMVI human tumor cell line is measured as a screen for anti-cancer activity. Cells are grown in 96 well plates and exposed to the test compound for 48 hours. Compounds are tested at a single concentration, which is 10^-5 M for most compounds. The reported endpoint is percent growth (GI% or GIPRCNT), where numbers from 0 - 100% represent growth inhibition, and numbers from -100% - 0 represent cell death. For example, a value of 40 represents 60% growth inhibition. […]
The panel holds about 83,000 compounds, 20% with a hit somewhere; the sample as a whole holds those more often.

compound: Clc1nc2ccccc2nc1CI
growth (%): 8.23

compound: O=C1c2ccccc2C(=O)c2c1oc1oc3c(c(=O)c21)c(=O)n(-c1ccccc1)c1ccccc31
growth (%): 43

compound: CC1=NN2C(=NC3=C(CCC/C3=C\c3ccc(Cl)cc3)C2c2ccc(Cl)cc2)S1 (stereo unspecified)
growth (%): 60.6

compound: C=CCOc1cccc(/C=C/C(=O)c2sc(Nc3cccnc3)nc2C)c1
growth (%): 32.9

compound: COc1cccc(/C=C/C(=O)c2sc(Nc3ccc(O)cc3)nc2C)c1
growth (%): 87.5

compound: c1cncc(CNc2ccccc2-c2nnc(Nc3ccc4c(c3)OCCO4)o2)c1
growth (%): 27.1

compound: COc1ccc(C2=CC(c3ccc(Oc4ccnc5cc(Cl)ccc45)c(OC)c3)c3c(nc(OC)[nH]c3=O)N2)cc1 (stereo unspecified)
growth (%): 52.7

compound: CS(=O)(=O)N(c1cc(-c2ccc3ncnc(Nc4cccc(Cl)c4)c3c2)cnc1Cl)S(C)(=O)=O
growth (%): 2.19

compound: COc1ccc(-c2nnc(COc3ccc(NC(=O)Nc4ccc(Cl)c(C(F)(F)F)c4)cc3F)o2)cc1
growth (%): 1.05

compound: C[C@]12CC[C@@H]3c4cc(O)c(O)cc4CC[C@H]3[C@@H]1CC[C@@H]2O
growth (%): 40

compound: CN1CCN(CCCOc2ccc3nc(Nc4ccc(C(F)(F)F)c(Cl)c4)ccc3c2)CC1
growth (%): -83.1

compound: COc1ccccc1OCC(=O)Nc1sc2c(c1C(N)=O)CCC2
growth (%): 50.5

compound: NC(N)=NC(N)=Nc1ccccc1-c1ccccc1
growth (%): 102

compound: NC(C(=O)O)C(O)c1ccc(OCc2ccccc2)c(OCc2ccccc2)c1 (stereo unspecified)
growth (%): 99.1

compound: CCOC(=O)c1ccccc1NC(c1ccccc1)c1ccc2cccnc2c1O (stereo unspecified)
growth (%): 11.9

compound: CCc1c(C(=O)Nc2ccc3ccccc3c2)[nH]c(C)c1C(C)=O
growth (%): 96.3

compound: CCN(Cc1ccc(CN(CC)C(=O)C(Cl)(Cl)Cl)cc1)C(=O)C(Cl)(Cl)Cl
growth (%): 78.3

compound: Cc1ccc(Cn2c(-c3nonc3N)nc3ccccc32)cc1
growth (%): 71.7

compound: O=C1NCC(c2cc3ccccc3[nH]c2=O)Nc2ccccc21 (stereo unspecified)
growth (%): 98.5

compound: Nc1c(C(=O)Nc2ccccc2)sc2nc3c(cc12)CN(Cc1ccccc1)CC3
growth (%): 67

compound: COc1ccc(-c2cn[nH]c2-c2cc(OC)c3c(c2)OCCO3)cc1
growth (%): 30.2

----------
tested on: CAKI-1 renal; experiment: NCI-60 one-dose screen, 48 h; details: 10 µM unless noted
This is part of a sample that, as a whole, favours compounds with a hit. Of some 83,000 tested, about 20% had one in any assay. Calls of active or inactive are those of the source. Rule for the calls: active = growth percent below 10; inactive = the rest.
Outcome codes: active, inactive

molecule: CC/C(=C(\c1ccc(O)cc1)c1ccc(OCCN(C)CCN(C)C(=O)CCC(=O)c2c(C)[nH]c(/C=C3\N=C(c4ccc[nH]4)C=C3OC)c2C)cc1)c1ccccc1
class-name: inactive
//
molecule: CCN(C(=O)c1cc2ccccc2[nH]1)[C@H]1CCC[C@@H](NCc2ccc(OC)cc2)C1
class-name: inactive
//
molecule: COc1cc(OC)c(C(=O)/C=C/c2ccc(C(F)(F)F)cc2)c(OC)c1
class-name: inactive
//
molecule: O=C1N=C(c2c(-c3[nH]c(=O)c4ccc(Br)cc4c3O)c(O)c3ccccc3c2O)C(=O)c2cc(Br)ccc21
class-name: active
//
molecule: O=C(CNC1CCCCC1)Nc1ccc(-c2nc3ccccc3s2)cc1
class-name: inactive
//
molecule: CC1=NN2C(=NC3=C(CCC/C3=C\c3ccc(Cl)cc3)C2c2ccc(Cl)cc2)S1 (centres undefined)
class-name: inactive
//
molecule: Cc1ccnc2nc(C(=O)OCC(=O)Nc3ccc(-c4ccccc4)cc3)nn12
class-name: inactive
//
molecule: O=C(CNc1c(Cl)cccc1Cl)Nc1ccc(-c2nc3ccccc3s2)cc1
class-name: inactive
//
molecule: COc1ccc(C2CC(c3cccs3)=NN2c2ccc(S(=O)(=O)NC(=O)Nc3ccc(C)cc3)cc2)cc1 (centres undefined)
class-name: inactive
